Quick record of pIC50 values for 6×His-CRBN-DDB1 protein (Homo sapiens (Human), UniProt Q96SW2).
pIC50: −log10 of the molar value.

Guide cases for pIC50, answers given:
INSERT INTO measurements (molecule, assayed_system, result) VALUES
  ('N#Cc1ccc(C(=O)Nc2ccc3c(c2)CN(C2CCC(=O)NC2=O)C3=O)cc1 (stereo not shown) [Compound 52]', '6×His-CRBN-DDB1 protein (Homo sapiens (Human), UniProt Q96SW2)', '5.00 to 6.00'),
  ('O=C1CCC(N2Cc3cc(NC(=O)c4ccc(C5CC5)cc4)ccc3C2=O)C(=O)N1 (stereo not shown) [Compound 48]', '6×His-CRBN-DDB1 protein (Homo sapiens (Human), UniProt Q96SW2)', '5.00 to 6.00'),
  ('O=C1CCC(N2Cc3cc(NC(=O)c4cccc(C5CC5)c4)ccc3C2=O)C(=O)N1 (stereo not shown) [Compound 50]', '6×His-CRBN-DDB1 protein (Homo sapiens (Human), UniProt Q96SW2)', '5.00 to 6.00'),
  ('O=C1CCC(N2Cc3cc(NC(=O)c4ccccc4C(F)(F)F)ccc3C2=O)C(=O)N1 (stereo not shown) [Compound 10]', '6×His-CRBN-DDB1 protein (Homo sapiens (Human), UniProt Q96SW2)', '> 6.00'),
  ('CS(=O)(=O)Nc1cccc(C(=O)Nc2ccc3c(c2)CN(C2CCC(=O)NC2=O)C3=O)c1 (stereo not shown) [Compound 47]', '6×His-CRBN-DDB1 protein (Homo sapiens (Human), UniProt Q96SW2)', '5.00 to 6.00'),
  ('O=C1CCC(N2Cc3cc(NC(=O)c4cccc(OC(F)(F)F)c4)ccc3C2=O)C(=O)N1 (stereo not shown) [Compound 44]', '6×His-CRBN-DDB1 protein (Homo sapiens (Human), UniProt Q96SW2)', '5.00 to 6.00');

// fetch 6×His-CRBN-DDB1 protein (Homo sapiens (Human), UniProt Q96SW2) pIC50 for CS(=O)(=O)Nc1ccc(C(=O)Nc2ccc3c(c2)CN(C2CCC(=O)NC2=O)C3=O)cc1 (stereo not shown) [Compound 46] 5.00 to 6.00

Moving on to the next molecule: COc1cccc(C(=O)Nc2ccc3c(c2)CN(C2CCC(=O)NC2=O)C3=O)c1 (stereo not shown) [Compound 11] > 6.00

Moving on to the next molecule: O=C1CCC(N2Cc3cc(NC(=O)c4ccncc4)ccc3C2=O)C(=O)N1 (stereo not shown) [Compound 7] 5.00 to 6.00

Moving on to the next molecule: Cc1ccc(NC(=O)Nc2ccc3c(c2)CN(C2CCC(=O)NC2=O)C3=O)cc1 (stereo not shown) [Compound 17] 5.00 to 6.00

Moving on to the next molecule: O=C1CCC(N2Cc3cc(Nc4noc5cc(F)ccc45)ccc3C2=O)C(=O)N1 (stereo not shown) [Compound 62] > 6.00

Moving on to the next molecule: COc1cc(C)cc(C(=O)Nc2ccc3c(c2)CN(C2CCC(=O)NC2=O)C3=O)c1 (stereo not shown) [Compound 61] 5.00 to 6.00

Moving on to the next molecule: O=C1CCC(N2Cc3cc(NC(=O)c4ccc(-c5ccn[nH]5)cc4)ccc3C2=O)C(=O)N1 (stereo not shown) [Compound 21] 5.00 to 6.00
